Measured viability at 28.5 h, 10 µM accompanies every entry in the list below.
Experiment: in vitro
Settings: human, hela cells, % viability
Enter your answer as a number in %; do not include the unit.

Cc1cc2ncc3c(n2n1)CC1CCC3N1Cc1ccc(C)o1 (centres unmarked): 88.9
O=C(c1cccs1)N1CCC[C@H]1[C@H](O)c1nccs1: 92.1

// Cn1cccc1CNCCc1ccc(S(N)(=O)=O)cc1 [CBK267831C] : viability at 28.5 h, 10 µM value = 98.7

Looking up CC12CCCC(=O)N1C(CO)C(c1ccccc1)O2 (centres unmarked) , I found its viability at 28.5 h, 10 µM recorded as 91.2

Lab book: viability at 28.5 h, 10 µM of O=C(COc1ccc(S(=O)(=O)NC2CCCC2)cc1)Nc1ccc2c(c1)OCCO2 noted as 101

// viability at 28.5 h, 10 µM lookup, compound = O=C(NC(C(=O)c1ccccc1)N1CCCCC1)c1ccccc1 (centres unmarked) , result: 123

viability at 28.5 h, 10 µM measured on COc1cncc(-c2cncc(NCCCN3CCOCC3)n2)c1 = 84

viability at 28.5 h, 10 µM in this record for COCC(C)NC(=O)CCn1ccc2ccncc21 (centres unmarked) : 93.8

Lookup result for O=C(CSc1nnc(-c2cccnc2)n1-c1cccc(C(F)(F)F)c1)c1ccc(F)cc1 ; measured viability at 28.5 h, 10 µM: 87.9

###

Test: in vitro
Conditions: human, hela cells, % viability
property_measured: viability at 28.5 h, 10 µM (%)
Numbers only; they are read as %.

viability at 28.5 h, 10 µM measured on CCOc1ccc(-c2c(C3CC3)n[nH]c2N)cc1OCC [CBK288177] = 107

Entry Cc1ccc(-c2ccc(Nc3ccc(Oc4ccccc4)cc3)nc2)cc1C [CBK037740] — recorded viability at 28.5 h, 10 µM = 92.7

So for O=C(NCCCc1ccccn1)c1ccnc2ccc(Cl)cc12 [CBK282618] , the logged viability at 28.5 h, 10 µM turned out to be 92.4

Per the records, this molecule ( CCN(CC)CCN1C(=O)CCC2(c3ccccc3)CCC(=O)C=C12 (centres unmarked) [CBK023010C] ) has viability at 28.5 h, 10 µM equal to 105

Looking up CN(C)C(=O)[C@H]1CC[C@]2(CC1)CNC(=O)c1ccccc1O2 [CBK284894] , I found its viability at 28.5 h, 10 µM recorded as 92.7

viability at 28.5 h, 10 µM reading for COc1ccccc1C(=O)N[C@H]1C[C@@H](c2nc(-c3cnccn3)no2)N(C)C1 [CBK288850] : 96

Form field viability at 28.5 h, 10 µM, entry COc1cccc(NC(=O)C(=O)NCCCO)c1 [CBK262095] : 89.6

Memo: Cc1nc2c(C(=O)NCCOCCO)cnn2c(C)c1Cc1cccc(OC(F)(F)F)c1 [CBK167454] , reported viability at 28.5 h, 10 µM: 114

###

Assay: in vitro
Conditions: human, hela cells, % viability
property_measured: viability at 28.5 h, 10 µM (%)
Reply with just the number (in %).

Form field viability at 28.5 h, 10 µM, entry O=[N+]([O-])c1ccc(CN2CCN(C/C=C/c3ccccc3)CC2)o1 : 85.1

###

Assay: in vitro
Settings: human, hela cells, % viability
property_measured: viability at 28.5 h, 10 µM (%)
Only the number, expressed in %, is required.

Below, 6 compounds whose answers are already recorded.
CC(C)c1ccc(COc2nccnc2OC2CCN(CCCC#N)CC2)cc1: 96.5
COc1cccc(NC(=O)CC(CN2CCC(O)CC2)C(=O)O)c1 (centres unmarked): 93
COc1nccnc1-c1ccccc1Cl: 100
NC(=O)c1c(NC(=O)CCN2C(=O)c3cccc([N+](=O)[O-])c3C2=O)sc2c1CCCC2: 105
Cc1n[nH]c(C)c1CNC(=O)c1cc2ccc(F)cc2[nH]1: 89.4
O=C1N=C(NC2CCCCCC2)SC1Cc1nc2ccccc2[nH]1 (centres unmarked): 83.7

For this compound ( CCS(=O)(=O)Nc1cc([N+](=O)[O-])ccc1OC ), measured viability at 28.5 h, 10 µM is 97

Data point: CN1CCC2(CC1)NCCc1c2ccn1S(=O)(=O)c1cccc2c(N(C)C)cccc12 [CBK061633C] ; viability at 28.5 h, 10 µM = 105

###

Assay: in vitro
Settings: human, hela cells, % viability
viability at 28.5 h, 10 µM values for the compounds below.
Just the number in %, nothing appended.

Observe how each entry below is paired with its result.
O=C(O)COc1ccc(N2C(=O)C(O)=C(C(=O)c3ccccc3)C2c2cccc(F)c2)cc1 (stereo not shown) [CBK287010]: 96.8
CN1CCN(CCC(=O)N/N=C/c2ccsc2)CC1 [CBK261505]: 94.8
CC(C(=O)N1CCC2(CC1)NC(=O)c1ccccc1N2)(c1ccccc1)c1ccccc1 [CBK286308]: 108

// moving on: another record for viability at 28.5 h, 10 µM
Item: Cc1cccc2cc3c(nc12)OCC(=O)N(Cc1ccco1)C3 [CBK283816] | viability at 28.5 h, 10 µM: 97.6

###

Experiment: in vitro
Conditions: human, hela cells, % viability
Mark Satisfied for viability at 28.5 h, 10 µM under 90%, Not satisfied if at or over.

COc1ccc(OC(C)(C)C(=O)N2CCCC(c3ccc(Nc4ncccn4)cn3)C2)cc1 (stereo not drawn): Satisfied
CCc1nc2c(N3CCC(n4nc(C)cc4C)C3)ncnc2o1 (stereo not drawn): Not satisfied
COc1ccc(NS(=O)(=O)c2cc(C(=O)O)cc(C)c2C)cc1OC: Satisfied
COc1ccc(Nc2cc(-c3ccco3)ncn2)cc1OC: Not satisfied

Continue with the compound presented below.
Query :: Below 90% on viability at 28.5 h, 10 µM? Entry CCNc1nc(Sc2ccc(Cl)cc2)cc(C(F)(F)F)n1
Result :: Satisfied

###

Here the recorded viability at 28.5 h, 10 µM is given for each entry.
Assay: in vitro
Conditions: human, hela cells, % viability
Output should be the measured figure followed by the unit it is expressed in.

viability at 28.5 h, 10 µM reported for this molecule COCCN1CCCC(NS(=O)(=O)c2cccc(C(C)=O)c2)C1 (stereo not drawn) : 94.7%

Recorded result, COCCNc1nc(-c2ccccc2CO)cnc1N , viability at 28.5 h, 10 µM: 108%

Sample Cc1nc2ccc(C(=O)N3CCCCC3)cn2c1N(C)C=O ; viability at 28.5 h, 10 µM observed: 100%

###

Assay: in vitro
Details: human, hela cells, % viability
viability at 28.5 h, 10 µM for assorted molecules
Give the value, in units of %, as a plain number.

A selection of reference data follows.
Nc1ncc(-c2cccc(O)c2)nc1-c1ccc(CCC(=O)O)cc1 [CBK064135]: 103
O=C(O)/C=C/C(=O)Nc1ccccc1C(=O)O [CBK261461]: 101
COc1ccccc1/C=C/c1nn2c(C(C)C)nnc2s1 [CBK269501]: 79.3

For reference, reported viability at 28.5 h, 10 µM for CCOC(=O)C1CCCN(Cc2ccc3c(c2)OCO3)C1 (centres unmarked) [CBK074569] stands at 97.7

Data point: Cc1nn(-c2nc3ccccc3s2)c(O)c1C1OC(=O)c2ccccc21 (centres unmarked) [CBK267220] ; viability at 28.5 h, 10 µM = 95

molecule COc1ccc(C(C)C)cc1-c1cnc(N)c(NC2CCCCC2)n1 [CBK063618] , viability at 28.5 h, 10 µM observed: 108

The recorded viability at 28.5 h, 10 µM for entry CC(C)(C)OC(=O)N1CCCC(C(=O)NCCc2ccccn2)C1 (centres unmarked) [CBK304281] equals 86.5

The value of viability at 28.5 h, 10 µM measured for the molecule Cc1cc2c(cc1C)OC1(C=C2)CCN(C(=O)N2CCOCC2)CC1 [CBK285314] turned out to be 94.4

Summary for this molecule, COc1cccc(CC(=O)NCc2ccccc2OC2CCNC2)c1 (centres unmarked) [CBK024487T] : viability at 28.5 h, 10 µM is 88.5

Recorded viability at 28.5 h, 10 µM (molecule CCN(CC)c1ccc(NC(=O)N(CCCN2CCOCC2)Cc2ccc(OC)c(OC)c2)cc1 [CBK159168] ): 91.1

Form field viability at 28.5 h, 10 µM, entry CCCNC(c1ccccc1)c1ccncc1 (centres unmarked) [CBK028505] : 96.7

So, c1ccc2sc(-c3cc(Nc4ccc5[nH]ccc5c4)ncn3)cc2c1 [CBK090858] ? Its viability at 28.5 h, 10 µM was 82.5

Entry under test: Cc1ccc(C)n1NC(=O)c1ccccc1[N+](=O)[O-] [CBK266151] . Its viability at 28.5 h, 10 µM was 104

COc1cc([N+](=O)[O-])ccc1NC(=O)CN(C)S(=O)(=O)c1ccc2ccccc2c1 [CBK267387] yielded viability at 28.5 h, 10 µM of 97.5

The measured viability at 28.5 h, 10 µM associated with Cc1ccc(-c2n[nH]c(=S)n2CCC(=O)NCc2ccc(-c3csc(C)n3)s2)cc1 [CBK297924] reads 84.5

Please fill in: viability at 28.5 h, 10 µM reported for Cc1cc(=O)oc2cc(NC(=S)NNC(=O)C3CCN(Cc4ccc(F)cc4Cl)CC3)ccc12 [CBK266953] = 99.4

Lab note: measured viability at 28.5 h, 10 µM of NS(=O)(=O)c1ccccc1NC(=O)NC1CCCCC1 [CBK016919] was 93.4
